Test system: AR mRNA
protocol-summary: Dose-dependent antisense inhibition of human AR in HuVEC cells (electroporation, qRT-PCR RTS3559, IC50)
Format: cell-based
particulars: Table 33; 3000.0 nM, HuVEC, electroporation, approximately 16 hours
Oligonucleotides are written 5' to 3', each unit as a sugar letter and its base; * is a phosphorothioate linkage, no mark a phosphodiester; rarer units and linkages stand in square brackets, end groups in braces. Plain capitals give the bases only. k = constrained ethyl (cEt); [5mC] = 5-methylcytosine; d = 2'-deoxy (DNA)
Quick reference: percent inhibition of AR, 3000.0 nM of the listed items.

substance: 583893 (kA*kG*k[5mC]*dA*dG*d[5mC]*d[5mC]*dT*dA*dG*dG*d[5mC]*dT*k[5mC]*kT*k[5mC]; antisense) [compound 583893]
units-text: %
percent inhibition of AR, 3000.0 nM: 79

substance: 583892 (k[5mC]*kA*kG*d[5mC]*d[5mC]*dT*dA*dG*dG*d[5mC]*dT*d[5mC]*dT*k[5mC]*kG*k[5mC]; antisense) [compound 583892]
units-text: %
percent inhibition of AR, 3000.0 nM: 83

substance: 583920 (kT*kA*kG*dT*dA*dG*dT*d[5mC]*dG*d[5mC]*dG*dA*d[5mC]*kT*k[5mC]*kT; antisense) [compound 583920]
units-text: %
percent inhibition of AR, 3000.0 nM: 72

substance: 583862 (kG*k[5mC]*kT*d[5mC]*dT*dT*dG*d[5mC]*d[5mC]*dT*dG*d[5mC]*dG*k[5mC]*kT*kG; antisense) [compound 583862]
units-text: %
percent inhibition of AR, 3000.0 nM: 79

substance: 583866 (kT*k[5mC]*kT*dT*d[5mC]*dA*dG*dT*dG*d[5mC]*dT*d[5mC]*dT*kT*kG*k[5mC]; antisense) [compound 583866]
units-text: %
percent inhibition of AR, 3000.0 nM: 91

substance: 583919 (kG*kT*kA*dG*dT*d[5mC]*dG*d[5mC]*dG*dA*d[5mC]*dT*d[5mC]*kT*kG*kG; antisense) [compound 583919]
units-text: %
percent inhibition of AR, 3000.0 nM: 91

====

Quick reference: TMPRSS2 mRNA levels (% baseline value) after treatment with DHT of the listed items.
Tested on: TMPRSS2 mRNA
protocol-summary: TMPRSS2 mRNA levels in LMR20 cells
Assay type: cell-based, human
particulars: LMR20 cells, DHT 10 nM 72 hrs, ASO 0.20 μM
Description: LMR20 cells were plated at 1,500 cells per well in phenol red-free medium with CSS.
Oligonucleotides are written 5' to 3', each unit as a sugar letter and its base; * is a phosphorothioate linkage, no mark a phosphodiester; rarer units and linkages stand in square brackets, end groups in braces. Plain capitals give the bases only. e = 2'-O-(2-methoxyethyl) (MOE); l = locked nucleic acid (LNA); k = constrained ethyl (cEt); [5mC] = 5-methylcytosine; d = 2'-deoxy (DNA)
readout-label: TMPRSS2 mRNA levels (% baseline value) after treatment with DHT

substance: 560131 (antisense kT*kT*kG*dA*dT*dT*dT*dA*dA*dT*dG*dG*kT*kT*kG*e[5mC]) [compound 560131]
target: TMPRSS2 mRNA
units-text: % baseline value
recorded-number: 108
//
substance: 549458 (kG*kT*kT*dG*dA*dT*dT*dT*dA*dA*dT*dG*dG*kT*kT*kG) [compound 549458]
target: TMPRSS2 mRNA
units-text: % baseline value
recorded-number: 119
//
substance: 554221 (ACCAAGTTTCTTCAGC; sugars from the 5' end l3 d10 l3, all phosphorothioate, methylation of C not given here) [compound 554221]
target: TMPRSS2 mRNA
units-text: % baseline value
recorded-number: 118
//
substance: 569236 (antisense eT*kG*kA*kT*dT*dT*dA*dA*dT*dG*dG*kT*kT*kG*e[5mC]*eA) [compound 569236]
target: TMPRSS2 mRNA
units-text: % baseline value
recorded-number: 123

====

System: KLK2 mRNA
protocol-summary: KLK2 mRNA (AR target gene) in C4-2B MR cells
Type: cell-based, human
particulars: 1.00 μM
Oligonucleotides are written 5' to 3', each unit as a sugar letter and its base; * is a phosphorothioate linkage, no mark a phosphodiester; rarer units and linkages stand in square brackets, end groups in braces. Plain capitals give the bases only. e = 2'-O-(2-methoxyethyl) (MOE); l = locked nucleic acid (LNA); k = constrained ethyl (cEt); [5mC] = 5-methylcytosine; d = 2'-deoxy (DNA)
readout-label: Percent inhibition of KLK2 mRNA in C4-2B MR cells (%)

substance: 549458 (kG*kT*kT*dG*dA*dT*dT*dT*dA*dA*dT*dG*dG*kT*kT*kG) [compound 549458]
recorded-number: 87
--
substance: 549434 (k[5mC]*kT*kA*dA*dA*d[5mC]*dT*dT*d[5mC]*d[5mC]*d[5mC]*dG*dT*kG*kG*k[5mC]) [compound 549434]
recorded-number: 49
--
substance: 549372 (kA*kA*kG*dT*dT*dG*dT*dA*dG*dT*dA*dG*dT*k[5mC]*kG*k[5mC]) [compound 549372]
recorded-number: 57
--
substance: 347526 (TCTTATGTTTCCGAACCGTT; sugars from the 5' end e5 d10 e5, backbone and methylation of C not given here) [compound 347526]
recorded-number: 23
--
substance: 554221 (ACCAAGTTTCTTCAGC; sugars from the 5' end l3 d10 l3, all phosphorothioate, methylation of C not given here) [compound 554221]
recorded-number: 56

====

particulars: cynomolgus monkey, in vivo, sc, 40 mg/kg
Quick reference: C3 (% of baseline) of the listed items.

substance: TGATTTAATGGTTGCA [ISIS 569221] (cEt/MOE gapmer chemistry, further chemistry not given here)
C3 (% of baseline): 91 % of baseline
//
substance: TTGATTTAATGGTTGC [ISIS 579671] (cEt/MOE gapmer chemistry, further chemistry not given here)
C3 (% of baseline): 101 % of baseline
//
substance: TGATTTAATGGTTGCA [ISIS 569216] (cEt/MOE gapmer chemistry, further chemistry not given here)
C3 (% of baseline): 94 % of baseline
//
substance: GATTTAATGGTTGCAA (cEt gapmer chemistry, further chemistry not given here) [ISIS 586124]
C3 (% of baseline): 93 % of baseline
//
substance: TGATTTAATGGTTGCA [ISIS 569213] (cEt/MOE gapmer chemistry, further chemistry not given here)
C3 (% of baseline): 60 % of baseline
//
substance: ISIS 583918: antisense compound targeted to human AR (AGTCGCGACTCTGGTA; 3-10-3 (S)-cEt gapmer, further chemistry not given here)
C3 (% of baseline): 89 % of baseline

====

System: AR mRNA
protocol-summary: Dose-dependent antisense inhibition of human AR in HuVEC cells (electroporation, qRT-PCR RTS3559, IC50)
Type: cell-based
particulars: Table 30; 3000.0 nM, HuVEC, electroporation, approximately 16 hours
Oligonucleotides are written 5' to 3', each unit as a sugar letter and its base; * is a phosphorothioate linkage, no mark a phosphodiester; rarer units and linkages stand in square brackets, end groups in braces. Plain capitals give the bases only. k = constrained ethyl (cEt); [5mC] = 5-methylcytosine; d = 2'-deoxy (DNA)
readout-label: percent inhibition of AR, 3000.0 nM

substance: 583637 (antisense kA*kT*k[5mC]*dT*d[5mC]*dT*dG*dG*d[5mC]*dT*d[5mC]*d[5mC]*dG*k[5mC]*kA*k[5mC]) [compound 583637]
result: 75%
--
substance: 583728 (antisense kG*k[5mC]*kT*d[5mC]*dT*dG*dG*dA*dA*d[5mC]*dA*dG*dA*kT*kT*k[5mC]) [compound 583728]
result: 70%
--
substance: 583709 (antisense kG*k[5mC]*kT*dT*dG*dG*d[5mC]*dT*dG*dA*dA*dT*d[5mC]*kT*kT*k[5mC]) [compound 583709]
result: 84%
--
substance: 583642 (antisense kA*kG*kT*dG*dT*d[5mC]*d[5mC]*dA*d[5mC]*dT*dG*dA*dA*kG*kT*kA) [compound 583642]
result: 74%
--
substance: 583736 (antisense kT*kG*kG*dA*dT*d[5mC]*dA*d[5mC]*dT*dT*d[5mC]*dG*d[5mC]*kG*k[5mC]*kA) [compound 583736]
result: 63%
--
substance: 583734 (antisense kT*k[5mC]*kA*d[5mC]*dT*dT*d[5mC]*dG*d[5mC]*dG*d[5mC]*dA*d[5mC]*kG*k[5mC]*kT) [compound 583734]
result: 75%
--
substance: 549372 (kA*kA*kG*dT*dT*dG*dT*dA*dG*dT*dA*dG*dT*k[5mC]*kG*k[5mC]) [compound 549372]
result: 90%
--
substance: 583712 (antisense k[5mC]*k[5mC]*kT*dT*dG*dA*dG*d[5mC]*dT*dT*dG*dG*d[5mC]*kT*kG*kA) [compound 583712]
result: 78%
--
substance: 583688 (antisense kG*k[5mC]*kG*dG*dT*dA*dG*dT*d[5mC]*dG*d[5mC]*dT*dG*k[5mC]*kA*kG) [compound 583688]
result: 60%
--
substance: 549458 (kG*kT*kT*dG*dA*dT*dT*dT*dA*dA*dT*dG*dG*kT*kT*kG) [compound 549458]
result: 97%
--
substance: 583738 (antisense kG*kT*kT*d[5mC]*dT*dG*dG*dA*dT*d[5mC]*dA*d[5mC]*dT*kT*k[5mC]*kG) [compound 583738]
result: 71%
